EXPERIMENTAL DETAILS: Thermodynamic solubility testing in pH 7.4 phosphate buffer
Format: physicochemical
CONDITION DETAILS: sodium phosphate buffer, aqueous buffer, thermodynamic from solid, 25 °C
Please respond with reported solubility at 24 h for every item in the list.
Record the value in µM, omitting the unit from your answer.

I would be grateful if you could share the reported solubility at 24 h for C[C@H]1COc2c(-c3nc(N[C@@H]4CCOC[C@H]4O)ncc3Cl)cc(F)c3nc(C(C)(C)O)n1c23 (single isomer, unassigned) [Isomer 1 with a retention time of 2.078 min] .
2200

So what's the measured solubility at 24 h for this one? C[C@@H]1COc2c(-c3nc(N[C@@H]4CCOC[C@H]4O)ncc3Cl)cc(F)c3nc(C(C)(C)O)n1c23 (single isomer, unassigned) [Isomer 2 with a retention time of 1.887 min]
2130

====

EXPERIMENTAL DETAILS: Long-term/accelerated stability of crystal forms
Assay type: physicochemical
CONDITION DETAILS: 40 °C/75% RH, Initial, sealed in aluminum foil bag
Would you kindly list Purity% for each of these molecules?
Report only the number, with the unit % understood.

Any idea what Purity% was measured for C[C@H]1COc2c(-c3nc(N[C@@H]4CCOC[C@H]4O)ncc3Cl)cc(F)c3nc(C(C)(C)O)n1c23 [Crystal form D] ?
99.9

# query: Purity% of entry C[C@H]1COc2c(-c3nc(N[C@@H]4CCOC[C@H]4O)ncc3Cl)cc(F)c3nc(C(C)(C)O)n1c23 [Crystal form G]
99.9

What Purity% value was documented for this molecule, C[C@H]1COc2c(-c3nc(N[C@@H]4CCOC[C@H]4O)ncc3Cl)cc(F)c3nc(C(C)(C)O)n1c23 [Free-state amorphous form] ?
99.0
